Let's look at some compounds and their measured growth reduction.
- Test system: Staphylococcus aureus Sa2 (MRSA, cystic fibrosis isolate)
- EXPERIMENT_SUMMARY: growth reduction vs untreated control (viable cell count); higher = stronger antibacterial activity; extreme values may be limits of the assay
- CONDITION_INFO: 0.1 mM; 24 h
Where a name gives a salt, the structure may show the parent alone.
Hi! Could you send only the number? It should be in %, unit omitted.

>>> print(df.to_string())
                                   compound                           subject_of_test  unit_name  endpoint_result
0  O=C(O)c1ccc2c(c1)CCCC(c1ccc(Cl)cc1Cl)=C2c1ccc(O[C@H]2CCN(CCCF)C2)cc1  Staphylococcus aureus Sa2 (MRSA, cystic fibrosis isolate)          %              100
1  CCCCOc1nc(N)c2c(n1)N(Cc1cccc(CN3CCCC3)c1)CC(=O)N2  Staphylococcus aureus Sa2 (MRSA, cystic fibrosis isolate)          %               98
2  CC1(C)CCC(C)(C)c2cc(Cn3cccn3)c(/C=C/c3ccc(C(=O)O)cc3)cc21  Staphylococcus aureus Sa2 (MRSA, cystic fibrosis isolate)          %              100

In the following, a different compound is considered.
Note to self: growth reduction recorded for CN1CCCC(CC2c3ccccc3Sc3ccccc32)C1 (centres undefined) [Metixene hydrochloride hydrate] was 100

* * *

- Test system: Staphylococcus aureus Sa2 (MRSA, cystic fibrosis isolate)
- EXPERIMENT_SUMMARY: growth reduction vs untreated control (OD550); higher = stronger antibacterial activity
- CONDITION_INFO: 0.1 mM; 24 h
OBSERVABLE: growth reduction (%)
The reply should be a number in %, with the unit left off.

Please review the entries below; each comes with its answer.
                                   compound        observable  endpoint_result
0  O=C(NCc1ccc(Oc2ccccc2)cc1)c1nc(-c2cc(Br)c(O)c(Br)c2)no1  growth reduction             95.3
1  Clc1ccc(CCC(Cn2ccnc2)Sc2c(Cl)cccc2Cl)cc1 (centres undefined) [Butoconazole (nitrate)]  growth reduction              100
2  CN1C(=O)[C@@H](NC(=O)c2n[nH]c(Cc3ccccc3)n2)COc2ccccc21  growth reduction             90.3

Lab note: C[C@H](Nc1cc(-c2cnn(C)c2)cc(Nc2cnccn2)n1)c1ccc(F)cc1 [Ilginatinib (maleate)] gave growth reduction of 100

* * *

- System: Staphylococcus aureus Sa2 (MRSA, cystic fibrosis isolate)
- EXPERIMENT_SUMMARY: growth reduction vs untreated control (viable cell count); higher = stronger antibacterial activity; extreme values may be limits of the assay
- CONDITION_INFO: 0.1 mM; 24 h
OBSERVABLE: growth reduction (%)
Express your answer in %, writing the number without its unit.

The cases that follow already have their growth reduction on record.
                                   compound                           subject_of_test        observable  endpoint_result
0  CSc1ccc(C(=O)/C=C/c2cc(C)c(OC(C)(C)C(=O)O)c(C)c2)cc1 [Elafibranor]  Staphylococcus aureus Sa2 (MRSA, cystic fibrosis isolate)  growth reduction               95
1  COc1cc(F)c(F)c(Nc2ccc(I)cc2F)c1NS(=O)(=O)C1(C[C@H](O)CO)CC1 [Refametinib]  Staphylococcus aureus Sa2 (MRSA, cystic fibrosis isolate)  growth reduction              100
2  CC1=C(/C=C/C(C)=C/C=C/C(C)=C/C(=O)Nc2ccc(O)cc2)C(C)(C)CCC1 [Fenretinide]  Staphylococcus aureus Sa2 (MRSA, cystic fibrosis isolate)  growth reduction              100
3  CC(C)(C)C(=O)Oc1ccc(S(=O)(=O)Nc2ccccc2C(=O)NCC(=O)O)cc1 [Sivelestat (sodium)]  Staphylococcus aureus Sa2 (MRSA, cystic fibrosis isolate)  growth reduction               93
4  CC/C(=C(/c1ccc(/C=C/C(=O)O)cc1)c1ccc2[nH]ncc2c1)c1ccc(F)cc1Cl [Brilanestrant]  Staphylococcus aureus Sa2 (MRSA, cystic fibrosis isolate)  growth reduction              100
5  COc1c(-c2ccc3cc(NS(C)(=O)=O)ccc3c2)cc(-n2ccc(=O)[nH]c2=O)cc1C(C)(C)C [Dasabuvir]  Staphylococcus aureus Sa2 (MRSA, cystic fibrosis isolate)  growth reduction               93

Now for another entry.
Reported growth reduction for CCOC(=O)Nc1ccc(NCc2ccc(F)cc2)nc1N [Flupirtine (Maleate)] was 96

* * *

Listed molecules paired with reported growth reduction
- System: Staphylococcus aureus Sa2 (MRSA, cystic fibrosis isolate)
- EXPERIMENT_SUMMARY: growth reduction vs untreated control (OD550); higher = stronger antibacterial activity
- CONDITION_INFO: 0.1 mM; 24 h
Report only the number, with the unit % understood.

>>> df
                                   molecule        observable  endpoint_result
0  C=C1CC[C@H](O)C/C1=C/C=C1\CCC[C@]2(C)[C@@H]([C@H](C)/C=C/[C@H](C)C(C)C)CC[C@@H]12 [Vitamin D2]  growth reduction              100

Briefly, growth reduction measured for C[C@H]1CNCCCN1S(=O)(=O)c1cccc2cncc(F)c12 : 100

growth reduction measured on CC1(S(=O)(=O)O)CC(=O)c2ccccc2C1=O (stereo unspecified) [Menadione bisulfite (sodium)] = 99.5

* * *

- System: Staphylococcus aureus Sa2 (MRSA, cystic fibrosis isolate)
- EXPERIMENT_SUMMARY: growth reduction vs untreated control (OD550); higher = stronger antibacterial activity
- CONDITION_INFO: 0.1 mM; 24 h
Where a name gives a salt, the structure may show the parent alone.
OBSERVABLE: growth reduction (%)
Report the value in % with no unit label.

Example compounds with recorded growth reduction:
COMPOUND	growth reduction / %
O=C(Nc1ncc(SCCN2CCCC2)s1)[C@]1(c2ccc(S(=O)(=O)C3CC3)cc2)C[C@H]1C1CCCCC1 [Globalagliatin]	100
CCCCCCCCc1ccc(CCC(N)(CO)CO)cc1 [Fingolimod]	100
OCCN1CCN(CC/C=C2/c3ccccc3Sc3ccc(C(F)(F)F)cc32)CC1 [Flupentixol dihydrochloride]	100
CC(=O)OCC(=O)[C@@]1(O)CC[C@H]2[C@@H]3CCC4=CC(=O)C=C[C@]4(C)[C@H]3C(=O)C[C@@]21C [Prednisone acetate]	97.7
COc1cc(C)c2c(Oc3cccc(C(F)(F)F)c3)c(OC)cc(NC(C)CCCN)c2n1 (centres undefined) [Tafenoquine (Succinate)]	100

The measured growth reduction associated with Cc1nc2sccn2c(=O)c1CCN1CCC(=C(c2ccc(F)cc2)c2ccc(F)cc2)CC1 [Ritanserin] reads 97.5

Entry C=CC(=O)Nc1cc(Nc2nccc(-c3cn(C)c4ccccc34)n2)c(OC)cc1N(C)CCN(C)C [Osimertinib mesylate] ; growth reduction = 100

For Cc1ccc(C(=O)Nc2ccc(CN3CCN(C)CC3)c(C(F)(F)F)c2)cc1C#Cc1cnc2[nH]ncc2c1 the compound record lists growth reduction as 100

C=C[C@@H]1C[C@]1(NC(=O)[C@@H]1C[C@@H]2CN1C(=O)[C@H](C(C)(C)C)NC(=O)O[C@@H]1C[C@H]1CCCCCc1nc3ccc(OC)cc3nc1O2)C(=O)NS(=O)(=O)C1CC1 [Grazoprevir hydrate] yielded growth reduction of 100

Data point: C/C=C(/C(=C/C)c1ccc(O)cc1)c1ccc(O)cc1 [Dienestrol] ; growth reduction = 99.7

Value of growth reduction reported for the compound N[C@@H](Cc1cc(I)c(Oc2cc(I)c(O)c(I)c2)c(I)c1)C(=O)O [L-Thyroxine (sodium salt pentahydrate)] is 100

The reported growth reduction of the compound CCN(CC)CCNC(=O)c1c(C)[nH]c(/C=C2\C(=O)Nc3ccc(-c4csc(-c5ccccc5)n4)cc32)c1C [Amcasertib] was 100

Lab note: CCCCCc1ccc(C=CC(=O)Nc2ccccc2C(=O)O)cc1 [N-(p-amylcinnamoyl) Anthranilic Acid] gave growth reduction of 100

The value of growth reduction measured for the compound CC(C)(C)OC(=O)N[C@H]1CCCCC/C=C\[C@@H]2C[C@@]2(C(=O)NS(=O)(=O)C2CC2)NC(=O)[C@@H]2C[C@@H](OC(=O)N3Cc4cccc(F)c4C3)CN2C1=O [Danoprevir] turned out to be 99.9

* * *

- Tested on: Staphylococcus aureus Sa2 (MRSA, cystic fibrosis isolate)
- EXPERIMENT_SUMMARY: growth reduction vs untreated control (OD550); higher = stronger antibacterial activity
- CONDITION_INFO: 0.1 mM; 24 h
Where a name gives a salt, the structure may show the parent alone.
OBSERVABLE: growth reduction (%)
Report the figure in % without appending any unit label.

Worked examples follow.
                                   compound        observable  endpoint_result
0  CC(C)(C)c1cc(-c2cc(-c3ccc(C(=O)O)cc3)ccc2OCCO)ccc1N1CCCC1 [Trifarotene]  growth reduction              100
1  COc1cc(NC(C)CCCN)c2ncccc2c1 (stereo not drawn) [Primaquine (Diphosphate)]  growth reduction             91.2
2  Cc1ccc(-n2[nH]c(C)c(N=Nc3cccc(-c4cccc(C(=O)O)c4)c3O)c2=O)cc1C [Eltrombopag]  growth reduction             96.5
3  C=CC(=O)Nc1cc(Nc2nccc(-c3cn(C4CC4)c4ccccc34)n2)c(OC)cc1N(C)CCN(C)C [Almonertinib]  growth reduction              100
4  CCCCCOc1ccccc1/C(=C\SC)n1ccnc1 [Neticonazole (hydrochloride)]  growth reduction              100
5  COc1cc([C@H]2C(C#N)=C(N)Oc3c2ccc(N)c3N)cc(Br)c1OC [Crolibulin]  growth reduction             98.1

Reported growth reduction ( CCCCCOc1ccccc1/C(=C\SC)n1ccnc1 [Neticonazole] ) = 100

// Fc1ccc2c(CCNCc3cccc(OCC(F)(F)C(F)F)c3)c[nH]c2c1 [Idalopirdine Hydrochloride] : growth reduction value = 100
